Measured values drawn from patent US11813306B2 for this set.

# STUDY SYSTEM: human PCSK9 (Homo sapiens)
# Sequence (Q8NBP7 153-692): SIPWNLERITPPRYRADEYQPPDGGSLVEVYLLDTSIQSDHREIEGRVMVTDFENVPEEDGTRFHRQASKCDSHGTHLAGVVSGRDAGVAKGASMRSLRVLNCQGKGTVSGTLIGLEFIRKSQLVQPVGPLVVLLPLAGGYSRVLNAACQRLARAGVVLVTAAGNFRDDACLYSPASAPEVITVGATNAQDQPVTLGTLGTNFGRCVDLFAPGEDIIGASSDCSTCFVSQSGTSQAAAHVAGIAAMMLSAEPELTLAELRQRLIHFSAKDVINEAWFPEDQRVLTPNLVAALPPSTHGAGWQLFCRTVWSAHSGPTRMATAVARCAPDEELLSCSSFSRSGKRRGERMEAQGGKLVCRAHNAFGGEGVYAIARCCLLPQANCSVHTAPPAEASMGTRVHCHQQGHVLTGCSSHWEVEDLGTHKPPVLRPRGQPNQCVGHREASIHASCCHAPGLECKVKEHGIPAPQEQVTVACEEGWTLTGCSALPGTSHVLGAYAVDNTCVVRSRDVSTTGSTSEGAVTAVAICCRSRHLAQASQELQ
# Sequence (Q8NBP7 31-152 partner limits assumed): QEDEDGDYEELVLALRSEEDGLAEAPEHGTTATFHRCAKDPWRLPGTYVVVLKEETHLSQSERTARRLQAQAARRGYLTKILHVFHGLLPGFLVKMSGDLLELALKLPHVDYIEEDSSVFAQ
# TEST NAME: PCSK9 ligand binding assay (TR-FRET): interference with binding of human PCSK9 to human LDLR
# TEST SETTINGS: Human PCSK9 Alexa Fluor 647 / Human LDLR extracellular domain-Europium Kryptate
pIC50: −log10 of the molar value.
# binarize pIC50: threshold 9 inclusive, high side met, low side not met

INSERT INTO results (compound, class_assignment) VALUES
  ('C[C@@H]1CC(=O)N(Cc2c(F)cc(Cl)cc2Oc2ccc(-c3cnc(CN(C)C)n3C)cc2)[C@@H](C)C(=O)N[C@@H](CO)C(=O)N(C)[C@@]2(Cc3ccc(Cl)cc3)CCCN(C2)C1=O', 'not met'),
  ('C[C@H]1C(=O)N[C@@H](CO)C(=O)N[C@@]2(Cc3ccc(Cl)cc3)CCCN(C2)C(=O)[C@H](CC2CC2)CC(=O)N1Cc1c(F)cc(Cl)cc1Oc1ccc(-c2cnc(CN3CCCC3)n2C)cc1', 'met'),
  ('C[C@H]1C(=O)N[C@@H](CO)C(=O)N(C)[C@@]2(Cc3ccc(Cl)cc3)CCCN(C2)C(=O)[C@H](Cc2ccccn2)CC(=O)N1Cc1c(F)cc(Cl)cc1Oc1ccc(-c2cnc(CN(C)C)n2C)cc1', 'met'),
  ('C[C@H]1C(=O)N[C@@H](CO)C(=O)N[C@@]2(Cc3ccc(Cl)cc3)CCCN(C2)C(=O)[C@H](Cc2ccccc2)NC(=O)N1Cc1ccc(Cl)cc1Oc1ccc(-c2cnc(CN(C)C)n2C)cc1.Cl [Compound 60, hydrochloride]', 'met'),
  ('C[C@H]1C(=O)N[C@@H](CO)C(=O)N[C@@]2(Cc3ccc(Cl)cc3)CCCN(C2)C(=O)[C@H](Cc2ccccc2)CC(=O)N1Cc1ccc(Cl)c(F)c1Oc1ccc(-c2cnc(CN(C)C)n2C)cc1', 'met'),
  ('COC[C@H]1NC(=O)[C@H](C)N(Cc2ccc(Cl)cc2Oc2ccc(-c3cnc(CN(C)C)n3C)nc2)C(=O)C[C@@H](Cc2ccccc2)C(=O)N2CCC[C@@](Cc3ccc(Cl)cc3)(C2)NC1=O', 'not met'),
  ('COC[C@@H]1NC(=O)[C@H](C)N(Cc2ccc(Cl)cc2Oc2ccc(-c3cnc(CN(C)C)n3C)cc2)C(=O)O[C@@H](Cc2ccccc2)C(=O)N2CCC[C@@](Cc3ccc(Cl)cc3)(C2)NC1=O.Cl [Compound 156, hydrochloride]', 'not met'),
  ('COC[C@@H]1NC(=O)[C@H](C)N(Cc2ccc(Cl)cc2Oc2ccc(-c3cnc(CN4CCCC4)n3C)cc2)C(=O)C[C@@H]([C@H]2CC(C)(C)c3ccccc32)C(=O)N(C)C[C@@H](Cc2ccc(Cl)cc2)N(C)C1=O.Cl', 'not met'),
  ('COC[C@@H]1NC(=O)[C@H](C)N(Cc2ccc(Cl)cc2Oc2ccc(-c3cnc(CN4CCCC4)n3C)cc2)C(=O)C[C@@H](Cc2ccccc2)C(=O)N(C)C[C@@H](Cc2ccc(Cl)cc2)N(C)C1=O.Cl', 'not met');
